Provenance of the data: ChEMBL document CHEMBL5252662

molecular target: Cannabinoid receptor 1 (Rattus norvegicus, UniProt P20272); assay: Displacement of [3H]-WIN55212-2 from CB1R in rat brain membranes incubated for 60 mins by radioligand competitive binding assay; assay type: cell membranes, Membrane
Sequence (P20272 whole entry): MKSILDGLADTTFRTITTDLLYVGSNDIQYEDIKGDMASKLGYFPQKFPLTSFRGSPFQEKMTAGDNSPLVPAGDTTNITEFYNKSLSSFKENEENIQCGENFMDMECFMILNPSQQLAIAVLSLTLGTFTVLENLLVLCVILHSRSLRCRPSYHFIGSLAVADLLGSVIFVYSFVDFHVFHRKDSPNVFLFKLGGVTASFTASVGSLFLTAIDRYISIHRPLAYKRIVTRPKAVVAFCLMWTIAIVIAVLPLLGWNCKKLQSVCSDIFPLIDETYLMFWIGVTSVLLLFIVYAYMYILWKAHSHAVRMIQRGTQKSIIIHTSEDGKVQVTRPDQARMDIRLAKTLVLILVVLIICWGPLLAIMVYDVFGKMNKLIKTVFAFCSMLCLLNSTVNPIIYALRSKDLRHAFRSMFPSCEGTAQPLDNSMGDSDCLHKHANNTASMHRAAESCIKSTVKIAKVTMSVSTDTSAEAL
assayReadout: Ki

>>> observedresult("CNC(=O)[C@@H](NC(=O)c1nn(-c2ccc(Cl)cc2Cl)c(-n2cccc2Cl)c1C)C(C)(C)C")
"Not Active"
>>> observedresult("Cc1c(C(=O)N[C@H](C(=O)O)C(C)C)nn(-c2ccccc2)c1-n1cccc1")
"Not Active"
>>> observedresult("Cc1c(C(=O)N[C@H](C(=O)O)C(C)C)nn(-c2ccc(Cl)cc2)c1-n1cccc1")
"Not Active"
>>> observedresult("CC(C)(C)[C@H](NC(=O)c1cc(-n2cccc2)n(-c2ccc(Cl)cc2)n1)C(=O)O")
"Not Active"
>>> observedresult("Cc1c(C(=O)N[C@H](C(=O)O)C(C)(C)C)nn(-c2ccccc2)c1-n1cccc1")
"Not Active"
>>> observedresult("Cc1c(C(=O)N[C@H](C(=O)O)C(C)C)nn(-c2ccc(Cl)cc2Cl)c1-n1cccc1Cl")
"Not Active"
